Where do the numbers come from? From paper PMC6858373.

# System Tested: FGF14:Nav1.6 C-tail complex (Homo sapiens, UniProt Q92915+Q9UQD0)
# Construct: polymerase chain reaction (PCR) amplification of the FGF14 open reading frame (nt 1–855); C-terminal fragment of Nav1.6 (amino acids 1763–1976) fused with CD4ΔC-tail (amino acids 1–395); expressed in transfected cells
# Sequence (Q92915 1-252 isoform Q92915-2): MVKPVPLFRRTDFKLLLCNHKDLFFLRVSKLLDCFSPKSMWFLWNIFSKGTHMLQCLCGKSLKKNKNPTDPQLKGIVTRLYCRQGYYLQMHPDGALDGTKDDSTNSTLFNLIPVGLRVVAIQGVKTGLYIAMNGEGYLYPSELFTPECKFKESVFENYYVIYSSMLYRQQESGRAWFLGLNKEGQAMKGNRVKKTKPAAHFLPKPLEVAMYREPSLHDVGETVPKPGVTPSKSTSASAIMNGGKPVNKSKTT
# Sequence (Q9UQD0 1763-1976 limits assumed): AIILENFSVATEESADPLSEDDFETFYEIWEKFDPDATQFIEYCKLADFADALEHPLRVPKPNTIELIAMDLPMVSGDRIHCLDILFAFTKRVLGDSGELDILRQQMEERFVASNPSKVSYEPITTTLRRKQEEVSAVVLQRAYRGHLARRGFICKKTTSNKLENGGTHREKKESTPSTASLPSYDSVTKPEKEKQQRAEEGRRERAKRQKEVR
# Protocol Summary: Split-luciferase complementation assay (LCA) in Clone V double stable HEK293 cells
# Assay type: cell-based
# Details: 30 µM; 384-well; average of primary screening (n = 2); vs on-plate 0.3% DMSO
Kind request: treat -4 as inclusive, so Z-score (LCA primary screening) at -4 or higher is label 1, anything lower is label 0.

{"Compound": "CCn1c(-c2nonc2N)nc2cnc(Oc3cccc(NC(=O)c4ccc(OCCN5CCOCC5)cc4)c3)cc21 [GSK 269962 A, reference compound]", "Class": "label 0"}
{"Compound": "CCC1=C[C@@H]2CN(C1)Cc1c([nH]c3ccccc13)[C@@](C(=O)OC)(c1cc3c(cc1OC)N(C)[C@H]1[C@@](O)(C(=O)OC)[C@H](OC(C)=O)[C@]4(CC)C=CCN5CC[C@]31[C@@H]54)C2 [Vinorelbine, reference compound]", "Class": "label 1"}
{"Compound": "CN[C@@H]1C[C@H]2O[C@@](C)([C@@H]1OC)n1c3ccccc3c3c4c(c5c6ccccc6n2c5c31)C(=O)NC4 [Staurosporine, reference compound]", "Class": "label 0"}
{"Compound": "CC[C@]1(O)C[C@@H]2CN(CCc3c([nH]c4ccccc34)[C@@](C(=O)OC)(c3cc4c(cc3OC)N(C)[C@H]3[C@@](O)(C(=O)OC)[C@H](OC(C)=O)[C@]5(CC)C=CCN6CC[C@]43[C@@H]65)C2)C1 [Vinblastine, reference compound]", "Class": "label 1"}
{"Compound": "O=c1[nH]c(=O)n([C@H]2C[C@H](O)[C@@H](CO)O2)cc1F [Floxuridine, reference compound]", "Class": "label 1"}
{"Compound": "O=C(Nc1cccc(Nc2ncc(Br)c(NCCc3cnc[nH]3)n2)c1)N1CCCC1 [BX 912, reference compound]", "Class": "label 0"}
{"Compound": "CS(=O)(=O)c1ccc(C(=O)Nc2ccc(Cl)c(-c3ccccn3)c2)c(Cl)c1 [Vismodegib, reference compound]", "Class": "label 1"}
{"Compound": "Nc1ncn([C@H]2C[C@H](O)[C@@H](CO)O2)c(=O)n1 [Decitabine, reference compound]", "Class": "label 1"}
{"Compound": "C[C@]12O[C@H](C[C@]1(O)CO)n1c3ccccc3c3c4c(c5c6ccccc6n2c5c31)CNC4=O [Lestaurtinib, reference compound]", "Class": "label 0"}
{"Compound": "Nc1ncnc2c1c(-c1cnc3[nH]ccc3c1)nn2C1CCCC1 [PP121, reference compound]", "Class": "label 0"}
{"Compound": "C[C@@H](Oc1cc(-c2cnn(C3CCNCC3)c2)cnc1N)c1c(Cl)ccc(F)c1Cl [Crizotinib, reference compound]", "Class": "label 0"}

----------
# System Tested: FGF14:Nav1.6 C-tail complex (Homo sapiens, UniProt Q92915+Q9UQD0)
# Construct: polymerase chain reaction (PCR) amplification of the FGF14 open reading frame (nt 1–855); C-terminal fragment of Nav1.6 (amino acids 1763–1976) fused with CD4ΔC-tail (amino acids 1–395); expressed in transfected cells
# Protocol Summary: Split-luciferase complementation assay (LCA) in Clone V double stable HEK293 cells
# Type: cell-based
# Details: average of Set 1 and Set 2; normalized to 0.3% DMSO controls
Kind request: treat 90% as inclusive, so Split Luciferase Assay %Lum Avg at 90% or higher is Condition met, anything lower is Condition not met.

{"Molecule": "CC(C)C[C@H](NC(=O)[C@H](CCc1ccccc1)NC(=O)CN1CCOCC1)C(=O)N[C@@H](Cc1ccccc1)C(=O)N[C@@H](CC(C)C)C(=O)[C@@]1(C)CO1", "Class": "Condition not met"}
{"Molecule": "CN(C)/N=N/c1[nH]cnc1C(N)=O", "Class": "Condition met"}
{"Molecule": "O=c1cc(N2CCOCC2)oc2c(-c3ccccc3)cccc12", "Class": "Condition not met"}
{"Molecule": "O=P1(NCCCl)OCCCN1CCCl (centres unmarked) [Ifosfamide]", "Class": "Condition met"}
{"Molecule": "C[C@@H](Oc1cc(-c2cnn(C3CCNCC3)c2)cnc1N)c1c(Cl)ccc(F)c1Cl [Crizotinib, reference compound]", "Class": "Condition not met"}
